# measured-on: T1, cSNK:BSA conjugate (bovine, head-to-tail cyclized; conjugated to BSA carrier)
# T1 construct: also called BSA-cSNK
# experiment-description: BLI 2:1 fit, site 2 (KD2); 25 nM row
Quick reference for pKd among some binders
// field semantics: pKd = negative decimal log of concentration (mol/L)

GET /value?item= murine monoclonal antibody 5E3 (antibody, V domains shown, mouse antibody of the 5E3 hybridoma; also called murine 5E3; m5E3) VH: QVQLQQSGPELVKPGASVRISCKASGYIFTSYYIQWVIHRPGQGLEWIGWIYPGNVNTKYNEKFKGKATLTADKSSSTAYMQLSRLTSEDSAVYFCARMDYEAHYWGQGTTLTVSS VL: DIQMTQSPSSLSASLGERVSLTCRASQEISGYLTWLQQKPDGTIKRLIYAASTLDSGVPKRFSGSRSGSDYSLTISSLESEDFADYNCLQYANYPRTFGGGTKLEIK &field=pKd returns 8.80

For reference, reported pKd for rehu5E3-IgG4 (antibody, V domains shown, human IgG4/kappa; also called IgG4 rehu version) VH: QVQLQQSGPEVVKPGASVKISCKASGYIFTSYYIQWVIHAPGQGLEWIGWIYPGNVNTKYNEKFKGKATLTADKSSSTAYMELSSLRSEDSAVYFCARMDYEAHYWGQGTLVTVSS VL: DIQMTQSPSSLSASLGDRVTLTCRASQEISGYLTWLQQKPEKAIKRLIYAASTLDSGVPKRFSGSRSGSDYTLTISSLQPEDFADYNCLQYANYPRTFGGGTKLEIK stands at 8.40

Note to self: pKd recorded for hu5E3-IgG4 (antibody, V domains shown, human IgG4/kappa; also called humanized 5E3 IgG4) VH: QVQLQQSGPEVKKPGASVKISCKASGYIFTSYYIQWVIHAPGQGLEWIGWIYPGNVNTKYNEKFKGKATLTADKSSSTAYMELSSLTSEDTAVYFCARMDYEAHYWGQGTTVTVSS VL: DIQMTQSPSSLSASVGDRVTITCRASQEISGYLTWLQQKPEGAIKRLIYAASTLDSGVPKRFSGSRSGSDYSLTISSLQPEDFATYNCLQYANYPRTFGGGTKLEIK was 8.52

Notebook: hu5E3-IgG1 (antibody, V domains shown, human IgG1/kappa; also called humanized 5E3 IgG1; IHA variant) VH: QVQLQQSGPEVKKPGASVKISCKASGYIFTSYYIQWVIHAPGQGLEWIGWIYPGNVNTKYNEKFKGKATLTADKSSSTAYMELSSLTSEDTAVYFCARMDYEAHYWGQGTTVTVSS VL: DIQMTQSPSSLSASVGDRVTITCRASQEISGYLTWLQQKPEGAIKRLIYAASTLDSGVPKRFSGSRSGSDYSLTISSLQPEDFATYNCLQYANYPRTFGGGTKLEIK , pKd read as 8.74

Proceed to the following item.
The measured pKd associated with hu5E3-IgG2 (antibody, V domains shown, human IgG2/kappa; also called humanized 5E3 IgG2) VH: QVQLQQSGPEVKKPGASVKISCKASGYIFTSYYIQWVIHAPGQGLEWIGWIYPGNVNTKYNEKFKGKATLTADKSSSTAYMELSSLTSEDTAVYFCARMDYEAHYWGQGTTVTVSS VL: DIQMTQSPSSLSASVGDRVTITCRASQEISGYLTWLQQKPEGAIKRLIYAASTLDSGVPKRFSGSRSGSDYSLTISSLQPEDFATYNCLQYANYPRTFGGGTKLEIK reads 8.19
